Target: T1, RSV F glycoprotein (NUF4) (respiratory syncytial virus)
T1 chain 1: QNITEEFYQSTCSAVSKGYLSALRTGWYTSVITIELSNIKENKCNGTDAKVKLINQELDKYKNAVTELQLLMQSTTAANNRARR
T1 chain 2: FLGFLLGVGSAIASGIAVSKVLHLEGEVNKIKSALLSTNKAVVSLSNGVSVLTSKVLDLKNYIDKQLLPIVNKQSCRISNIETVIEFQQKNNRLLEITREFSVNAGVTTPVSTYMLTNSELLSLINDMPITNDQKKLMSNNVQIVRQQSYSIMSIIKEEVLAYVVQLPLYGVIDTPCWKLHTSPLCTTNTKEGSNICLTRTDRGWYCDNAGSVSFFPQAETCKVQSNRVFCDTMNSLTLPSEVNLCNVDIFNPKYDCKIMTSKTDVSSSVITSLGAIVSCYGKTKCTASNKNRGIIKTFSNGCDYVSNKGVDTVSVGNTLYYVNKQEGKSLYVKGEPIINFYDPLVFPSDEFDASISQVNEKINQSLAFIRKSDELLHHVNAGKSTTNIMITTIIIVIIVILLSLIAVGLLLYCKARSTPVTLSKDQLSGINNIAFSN
Test: SPR (BIAcore), mAb vs NUF4 (1:1)
PARAMETER MEASURED: fold in parentheses (palivizumab = 1)

## Input Please look at this binder and report its fold in parentheses (palivizumab = 1): A8c7 IgG (antibody, V domains shown) VH: QVTLRESGPALVKPTQTLTLTCTFSGFSLSTAGMSVGWIRQPPGKALEWLADIWWDDKKSYNPSLKDRLTISKDTSKNQVVLKVTNMDPADTATYYCARDMIFNWYFDVWGQGTTVTVSS VL: DIQMTQSPSTLSASVGDRVTITCSPSSRVGYMHWYQQKPGKAPKLLIYDTRYQSSGVPSRFSGSGSGTEFTLTISSLQPDDFATYYCFQGSGYPFTFGGGTKVEIKR
## Output 13 fold
